System: Caco-2, human colorectal carcinoma cells
TEST_PROTOCOL: Proliferation assay, Caco-2 (crystal violet)
Assay type: cell-based
MEASUREMENT_CONTEXT: Caco-2, 4 days; read-out: Inhibition of Caco-2 cell proliferation IC50
pIC50: −log10 of the molar value.
PROPERTY: pIC50

CCOc1cc(F)ccc1-c1cc(Nc2cc(CS(C)(=N)=O)cc(F)n2)ncc1F (single isomer, unassigned; (-)) = 7.00

1. COc1cc(F)ccc1-c1cc(Nc2cc(CS(C)(=O)=NC(=O)C(F)(F)F)cc(C(F)(F)F)n2)ncc1F (single isomer, unassigned; (-))
2. COc1cc(F)ccc1-c1cc(Nc2cc(CS(C)(=N)=O)ccn2)ncc1F (single isomer, unassigned; enantiomer 1) [Example 16]
Exercise: For the two items 1 and 2 , which reports the higher pIC50 value? Could you answer with the label of the item you picked?
Solution: 1
(1: 7.35, 2: 6.92)

----------
Test system: A2780, human ovarian carcinoma cells
TEST_PROTOCOL: Proliferation assay, A2780 (crystal violet)
Format: cell-based
MEASUREMENT_CONTEXT: A2780, 4 days; read-out: Inhibition of A2780 cell proliferation IC50
pIC50: −log10 of the molar value.
PROPERTY: pIC50

COc1cc(F)ccc1-c1cc(Nc2cc(CS(C)(=N)=O)ccn2)ncc1F (single isomer, unassigned; (+)) [Example 2] = 6.96

a. COc1cc(F)ccc1-c1cc(Nc2cc(CS(C)(=N)=O)cc(C(F)(F)F)n2)ncc1F (single isomer, unassigned; (-))
b. COc1cc(F)ccc1-c1cc(Nc2cc(CS(C)(=N)=O)ccn2)ncc1F (single isomer, unassigned; (-)) [Example 3]
Exercise: Which value of pIC50 is greater, the one for a or the one for b ? To answer, give the label that identifies your chosen option.
Solution: a

----------
TGT: CDK9/CycT1 (Homo sapiens, UniProt P50750)
Construct: Recombinant full-length His-tagged human CDK9 and CycT1; His; purchased Invitrogen PV4131; host or cells: insect cells
Sequence (P50750 whole entry): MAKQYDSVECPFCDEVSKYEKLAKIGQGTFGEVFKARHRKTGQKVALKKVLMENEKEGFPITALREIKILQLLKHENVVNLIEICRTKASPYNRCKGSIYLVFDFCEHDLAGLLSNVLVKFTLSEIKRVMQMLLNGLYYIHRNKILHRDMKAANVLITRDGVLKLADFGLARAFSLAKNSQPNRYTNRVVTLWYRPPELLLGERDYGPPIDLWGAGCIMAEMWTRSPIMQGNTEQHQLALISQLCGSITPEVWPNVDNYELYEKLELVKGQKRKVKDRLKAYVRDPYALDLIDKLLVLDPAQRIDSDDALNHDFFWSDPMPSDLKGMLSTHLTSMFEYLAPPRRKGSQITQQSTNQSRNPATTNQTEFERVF
Sequence (O60563 whole entry partner): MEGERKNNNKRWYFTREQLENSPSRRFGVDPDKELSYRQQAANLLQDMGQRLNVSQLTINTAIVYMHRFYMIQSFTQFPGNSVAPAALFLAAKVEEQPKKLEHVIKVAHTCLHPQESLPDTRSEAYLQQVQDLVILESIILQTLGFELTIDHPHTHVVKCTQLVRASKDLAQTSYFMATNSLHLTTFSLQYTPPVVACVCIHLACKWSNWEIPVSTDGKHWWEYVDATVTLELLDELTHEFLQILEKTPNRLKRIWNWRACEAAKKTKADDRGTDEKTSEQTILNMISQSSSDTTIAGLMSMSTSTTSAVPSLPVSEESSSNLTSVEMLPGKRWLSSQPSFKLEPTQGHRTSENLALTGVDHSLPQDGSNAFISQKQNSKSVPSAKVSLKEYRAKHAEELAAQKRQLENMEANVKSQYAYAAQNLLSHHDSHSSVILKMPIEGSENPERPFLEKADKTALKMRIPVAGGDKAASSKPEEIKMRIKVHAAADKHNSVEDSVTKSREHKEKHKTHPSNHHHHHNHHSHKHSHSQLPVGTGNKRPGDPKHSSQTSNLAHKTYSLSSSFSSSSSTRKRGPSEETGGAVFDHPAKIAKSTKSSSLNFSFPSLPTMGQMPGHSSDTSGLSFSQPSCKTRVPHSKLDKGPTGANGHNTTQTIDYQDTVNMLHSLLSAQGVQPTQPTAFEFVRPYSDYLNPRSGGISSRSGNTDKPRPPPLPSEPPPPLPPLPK
TEST_PROTOCOL: CDK9/CycT1 kinase assay (TR-FRET, 10 μM ATP)
Format: biochemical
MEASUREMENT_CONTEXT: Method 1a
Description: 1a. CDK9/CyeT1 Kinase Assay: CDK9/CycT1-inhibitory activity of compounds of the present invention was quantified employing the CDK9/CycT1 TR-FRET assay as described in the following paragraphs: Recombinant full-length His-tagged human CDK9 and CycT1, expressed in insect cells and purified by Ni-NTA affinity chromatography, were purchased from Invitrogen (Cat. No PV4131). As substrate for the kinase reaction biotinylated peptide biotin-Ttds-[…] […]
PROPERTY: IC50 (nM)

Known results for molecules:
COc1cc(F)ccc1-c1cc(Nc2cc(CS(=N)(=O)CCO)ccn2)ncc1F (racemic) [Example 8] = 13
COc1cc(F)ccc1-c1cc(Nc2cc(CS(C)(=N)=O)cc(F)n2)ncc1F (racemic) [Example 17] = 0.9
CCOc1cc(F)ccc1-c1cc(Nc2cc(CS(C)(=N)=O)cc(F)n2)ncc1F (racemic) [Example 26] = 3
COc1cc(F)ccc1-c1cc(Nc2cc(CS(C)(=N)=O)cc(F)n2)ncc1F (single isomer, unassigned; (-)) [Example 20] = 2
COc1cc(F)ccc1-c1cc(Nc2cc(CS(C)(=N)=O)cc(C)n2)ncc1F (racemic) [Example 4] = 4
COc1cc(F)ccc1-c1cc(Nc2cc(CS(C)(=O)=NC(=O)C(F)(F)F)cc(C(F)(F)F)n2)ncc1F (single isomer, unassigned; (+)) [Example 24] = 18
COc1cc(F)ccc1-c1cc(Nc2cc(CS(C)(=O)=NC(=O)C(F)(F)F)cc(F)n2)ncc1F (racemic) [Example 18] = 3
CCOC(=O)N=S(C)(=O)Cc1cc(Nc2cc(-c3ccc(F)cc3OC)c(F)cn2)nc(OC)c1 (racemic) [Example 15] = 2

I. COc1cc(F)ccc1-c1cc(Nc2cc(CS(C)(=N)=O)cc(F)n2)ncc1F (single isomer, unassigned; (+)) [Example 19]
II. COc1cc(F)ccc1-c1cc(Nc2cc(CS(C)(=N)=O)cc(Cl)n2)ncc1F (racemic) [Example 7]
III. COc1cc(F)ccc1-c1cc(Nc2cc(CS(C)(=N)=O)cc(C(F)F)n2)ncc1F (racemic) [Example 31]
Exercise: Arrange by IC50, high to low. Thanks in advance for listing the labels in the requested order.
Solution: I, III, II
